FYI, the data here is from patent US5760036A.

- target system: HIV protease (Human immunodeficiency virus type 1 group M subtype B)
- Construct: and purified protease
- assay notes: HIV Protease Assay
- Type: biochemical
- assay context: pH 5.5, 10 μM inhibitor, 4% DMSO, 450 μM substrate, pH 5.5, 30 minutes at 37° C., RP-HPLC; read-out: HIV Protease % Inhibition at 10 μM
property name: inhibition at 10 µM (%)
Use % as the unit, but write only the number.

# compound, inhibition at 10 µM, %
measured = [
    ("CC(C)[C@H](NC(=O)OCc1nc2ccccc2o1)C(=O)N[C@@H](Cc1ccccc1)[C@H](O)CNC[C@@H](O)[C@H](Cc1ccccc1)NC(=O)OC(C)(C)C (relative stereo)", 99),
]

// lookup inhibition at 10 µM for "O=C(Cc1ccccc1)N[C@@H](Cc1ccccc1)[C@H](O)CNC[C@@H](O)[C@H](Cc1ccccc1)NC(=O)Cc1ccccc1"
19

// lookup inhibition at 10 µM for "CC(C)(C)OC(=O)N[C@@H](Cc1ccccc1)[C@H](O)CNC[C@@H](O)[C@H](Cc1ccccc1)NC(=O)[C@@H](NC(=O)OCc1nc(-c2ccccc2)co1)C(C)(C)C"
99

---

- target system: HIV protease (Human immunodeficiency virus type 1 group M subtype B)
- Construct: and purified protease
- assay notes: HIV Protease Assay
- Format: biochemical
- assay context: pH 5.5, 10 μM inhibitor, 4% DMSO, 450 μM substrate, pH 5.5, 30 minutes at 37° C., RP-HPLC; read-out: HIV Protease % Inhibition at 10 μM
The compounds listed here are annotated with their inhibition at 10 µM.

Solved cases (8 shown):
# compound, inhibition at 10 µM
data = [
    ("CC(C)[C@@H](NC(=O)NCc1nc2ccccc2[nH]1)C(=O)N[C@@H](Cc1ccccc1)[C@H](O)CNC[C@@H](O)[C@H](Cc1ccccc1)NC(=O)OC(C)(C)C (relative stereo) [Compound 274]", "99%"),
    ("CC(C)[C@H](NC(=O)[C@@H](N)CO)C(=O)N[C@@H](Cc1ccccc1)[C@H](O)CNC[C@@H](O)[C@H](Cc1ccccc1)NC(=O)OC(C)(C)C (relative stereo) [Compound 212]", "99%"),
    ("CC(C)(C)OC(=O)N[C@@H](Cc1ccccc1)[C@H](O)CNC[C@@H](O)[C@H](Cc1ccccc1)NC(=O)C(NC(=O)OCc1ccccc1)C(C)(C)O (single isomer, unassigned; isomer a) [Compound 301]", "95%"),
    ("CC(C)[C@H](NC(=O)CCn1[nH]c2ccccc2c1=O)C(=O)N[C@@H](Cc1ccccc1)[C@H](O)CNC[C@@H](O)[C@H](Cc1ccccc1)NC(=O)OC(C)(C)C (relative stereo) [Compound 250]", "100%"),
    ("CC(C)C(C)(NC(=O)OCc1ccccc1)C(=O)N[C@@H](Cc1ccccc1)[C@H](O)CNC[C@@H](O)[C@H](Cc1ccccc1)NC(=O)OC(C)(C)C (stereo partly shown) [Compound 73]", "99%"),
    ("CNC(=O)C(O)(C(=O)N[C@@H](Cc1ccccc1)[C@H](O)CNC[C@@H](O)[C@H](Cc1ccccc1)NC(=O)OC(C)(C)C)C(C)(C)C (single isomer, unassigned; isomer a) [Compound 384]", "99%"),
    ("CC(C)(C)OC(=O)N[C@@H](Cc1ccccc1)[C@H](O)CNC[C@H](O)[C@@H](Cc1ccccc1)NC(=O)OC(C)(C)C [Compound 26ii]", "41%"),
    ("CC(C)(C)OC(=O)N[C@@H](Cc1ccccc1)[C@H](O)CNC[C@@H](O)[C@H](Cc1ccccc1)NC(=O)C(NC(=O)OCc1ccccc1)C(F)(F)F (stereo partly shown) [Compound 328]", "99%"),
]

// lookup inhibition at 10 µM for CC(C)(C)OC(=O)N[C@@H](Cc1ccccc1)[C@H](O)CNC[C@@H](O)[C@H](Cc1ccccc1)NC(=O)OCc1cccnc1 [Compound 256]
88%

// lookup inhibition at 10 µM for COC(=O)N[C@H](C(=O)N[C@@H](Cc1ccccc1)[C@H](O)CNC[C@@H](O)[C@H](Cc1ccc(OCCc2ccccn2)cc1)NC(=O)OC(C)(C)C)C(C)(C)C (relative stereo) [Compound 327]
99%
